Known melting point of a selection of molecules

Some solved cases for reference:
# Molecule, melting point
records = [
    ("COc1cc(C(=O)NS(=O)(=O)c2ccccc2Cl)ccc1Cc1cn(C)c2ccc(CC(C)NC(=O)N(C)C)cc12 (stereo not given)", "131 to 136 °C"),
    ("Cc1c(NC(=O)c2ccc(-c3ccc(Cl)s3)cc2F)ccc2cc(CN3CCCCC3)cnc12", "205 to 206 °C"),
    ("CCCCOC(=O)CN1CCC(NC(=O)OC(C)(C)C)CC1", "116 °C"),
    ("ClC[Si](c1ccccc1)(c1ccccc1)c1ccccc1", "112 to 115 °C"),
    ("CC(C)OC(=O)C1=C(c2cccc([N+](=O)[O-])c2)N2C(=O)N(C)NC2=NC1C (stereo not given)", "255 to 256 °C"),
    ("O=C1NN=C(c2cccc(Br)c2)CC1O (stereo not given)", "158 to 161 °C"),
    ("CC1C2C(C(=O)N1Cc1ccc3c(c1)OCO3)C(c1ccc(Br)cc1)N(C)C2(C)C (stereo not given)", "142 to 144 °C"),
    ("Cc1ncc(CCCN2C(=O)c3ccccc3C2=O)s1", "75 °C"),
    ("CS(=O)(=O)CCCn1cc(C(Cc2ccccc2Br)=NO)c2ccc(Cl)c(Cl)c21", "191 to 194 °C"),
    ("c1ccc(Cn2cnc3cncnc32)cc1", "99 to 100 °C"),
]

Record N#Cc1c(-c2ccc(OCc3ccccc3)cc2)[nH]c2ccc(OCc3ccccc3)cc12 , field melting point: 64 to 66 °C

Record CC1Cc2ccccc2C(C(S)(C#N)C(=O)O)=N1 (stereo not given) , field melting point: 159 to 160 °C

Record CCCCCCn1cnc(NC)c1C(=O)NCCCCCCOc1ccc(Cl)cc1 , field melting point: 55 to 56 °C

Record COc1ccc(N=C(C#Cc2ccccc2OC)N2CCN(Cc3ccc(C)cc3)CC2)cc1 , field melting point: 83 °C

Record COc1ccccc1NC(=O)Nc1nc(Nc2ccccc2C(=O)O)nc(Nc2ccccc2-c2ccccc2)n1 , field melting point: 228 °C

Record COc1ccc2oc(Cc3cccc(F)c3)c(CC#N)c2c1 , field melting point: 67 °C

Record CCN(CCCC12CC3CC(CC(C3)C1)C2)C(=O)NCCCc1ccncc1 , field melting point: 97.5 to 98.2 °C

Record Nc1ccc(Cl)cc1C(O)c1ccccc1OCc1ccccc1 (stereo not given) , field melting point: 120 to 121 °C

Record CCCCCCCCCCCCCCc1ccc(C(=O)O)[nH]1 , field melting point: 68 to 69 °C

Record O=c1ccc(C(F)(F)F)cn1Cc1ccccc1NCCN1CCOCC1 , field melting point: 101 to 103 °C

---

Quantity: melting point

Some solved cases for reference:
# Compound, melting point
measured = [
    ("CCN(CC)C(=O)c1cc2ccccc2c(-c2ccc(Cl)cc2)n1", "122 °C"),
    ("CCCc1nccn1-c1nc(-c2ccc(Cl)cc2)c(CCC(=O)O)o1", "174 to 175 °C"),
    ("O=C(C=Cc1cc(O)c(O)c([N+](=O)[O-])c1)c1ccc([N+](=O)[O-])cc1", "255 to 256 °C"),
    ("Cc1cc(-c2ccccc2Cl)nn1C(C)(C)C(=O)N(C)C", "104 to 106 °C"),
    ("Cc1cc2ccc(Cl)c(C)c2nc1-n1cncn1", "147 to 148 °C"),
]

Record CCOC(=O)c1cccc(/C=C/C(=O)c2cc(O)ccc2[N+](=O)[O-])c1 , field melting point: 157 to 159 °C

Record Cc1ccc(N2CCN(C(=O)NCCN(C)C)CC2)cc1 , field melting point: 85 to 88 °C

Record CCCCNC(=O)C(C)(C)COc1cccc2nc(C)c(C(=O)O)c(N)c12 , field melting point: 195 to 199 °C

Record Cc1ccc2c3c(ccc2n1)OC[C@H](CN1CCN(c2cccc(C)c2C)CC1)O3 , field melting point: 112 to 113 °C

Record O=C(Nc1ccc(F)cc1)c1ccccc1 , field melting point: 167 to 168 °C
